Recorded TGI, one value per entry.
# Test system: ACHN renal
# method_notes: NCI tumour cell line growth inhibition, 48 h
outcome_measure: TGI

>>> result("COc1ccc(C2CC(c3cccc(Nc4ccncc4)c3)=NN2c2cc(Cl)cc(Cl)c2)cc1 (stereo unspecified)")
"3.08 µM"
>>> result("O=[N+]([O-])c1ccc(/C=N/n2c(CO)nc3ccccc32)o1")
"17.3 µM"
>>> result("COC(=O)C(C(=O)C(=O)Nc1cccc(OC)c1)c1cnc2ccccc2n1 (stereo unspecified)")
"> 100 µM"
>>> result("C=C(C=O)[C@@H]1C2OC(=O)C(=C)[C@@H]2CC(O)[C@@]1(C)CC (stereo partly specified)")
"27.1 µM"
>>> result("CCOC(CCNCC(OCC)OCC)OCC")
"> 10 µM"
>>> result("COCCOCc1nc(C#N)c(N)o1")
"> 100 µM"
>>> result("COc1cc(Nc2cnc3cc(F)c(F)cc3n2)cc(OC)c1OC")
"> 100 µM"
>>> result("C[C@]12C=CC(=O)C=C1CC[C@H]1[C@@H]3C[C@@H](O)[C@](O)(C(=O)CO)[C@@]3(C)C[C@H](O)[C@@]12F")
"> 100 µM"
>>> result("Nc1nc(N)c2[nH]c(CNc3ccc(C(=O)O)cc3)nc2n1")
"> 100 µM"
>>> result("O=c1nc2occc2cn1C1CC(O)C(CO)O1 (stereo unspecified)")
"> 100 µM"
>>> result("Cn1c(=O)c2c(nc(Nc3cc(=O)[nH]c(=O)[nH]3)n2Cc2ccccc2)n(C)c1=O")
"> 100 µM"
>>> result("NC(Cc1cccc([N+](=O)[O-])c1)C(=O)O (stereo unspecified)")
"> 100 µM"
>>> result("COc1ccc(C(=O)Sc2c(-c3ccccc3)c(=O)n(-c3ccccc3)c(=S)n2-c2ccccc2)cc1")
"> 100 µM"
>>> result("CCSc1n/c(=C\\c2ccco2)c2nnnn12")
"> 100 µM"
>>> result("NNC(N)Nc1ccccc1 (stereo unspecified)")
"> 100 µM"
>>> result("CC(=O)c1c2c(cc3c1CC1(Cc4ccccc4C1=O)C3)CCC2 (stereo unspecified)")
"> 100 µM"
>>> result("C=C(C)C(CC=C(C)C)CC12CC(CC=C(C)C)C(C)(C)C(CC=C(C)C)(C(=O)C(Cc3ccc(O)c(O)c3)=C1O)C2=O (stereo unspecified)")
"> 100 µM"
>>> result("O=C(/C=C/c1ccc(O)cc1)OC[C@@H](O)COC1OC(CO)C(O)C(O)C1O (stereo partly specified)")
"> 100 µM"
>>> result("CC(SC(C)C(=O)N/N=C/c1cccc(Cl)c1)C(=O)N/N=C\\c1cccc(Cl)c1 (stereo unspecified)")
"> 100 µM"
>>> result("O=Cc1ccc2c(c1)CC1(C2)Cc2ccc3c(c2C1)CCC3 (stereo unspecified)")
"> 100 µM"
>>> result("COC(=O)C(C)(NC(=O)C(CC(=O)OC(C)(C)C)NC(=O)OC(C)(C)C)c1ccccc1 (stereo unspecified)")
"> 100 µM"
>>> result("COC(=O)Cc1cc(O)c(C/C=C(\\C)CC/C=C(\\C)C(O)C(=O)C=C(C)C)cc1O (stereo unspecified)")
"71 µM"
>>> result("Oc1ccc2ccccc2c1/C=C/c1ccc2c(Br)cc(Br)c(O)c2n1")
"18.1 µM"
>>> result("O=C(O/N=C1/CCCC/C1=C\\c1ccccc1)c1ccccc1")
"> 100 µM"
>>> result("CCN(CC)CCOc1ccc(/C=C(\\C#N)c2ccc(OCCN(CC)CC)cc2)cc1")
"> 58.8 µM"
>>> result("CNCCCn1cc(C2=C(c3cn(C)c4ccccc34)C(=O)NC2=O)c2ccccc21")
"13.9 µM"
>>> result("CCOC(=O)Oc1c(OC)cc(C(=O)NC2CCc3cc(OC)c(OC)c(OC)c3-c3ccc(SC)c(=O)cc32)cc1OC (stereo unspecified)")
"> 70 µM"
>>> result("Cc1cc2nc3c(C#N)c(-c4ccccc4)cc(Nc4ccc(Cl)cc4)n3c2cc1C")
"> 100 µM"
>>> result("CC(C)(C)C(=O)OCC1CCC[N+]2(C)CCCCC12 (stereo unspecified)")
"> 100 µM"
>>> result("O=C1CN=C(C[N+](=O)[O-])c2ccccc21")
"> 100 µM"
>>> result("C=C1C[C@@H]2O[C@H]3[C@H]4[C@@H](C[C@@H](C)[C@@H](OC(C)=O)[C@H]42)[C@@H](C)CO[C@@]3(C)[C@H](OC(C)=O)C[C@H]1O")
"> 100 µM"
>>> result("O=C1N=c2ccccc2=C1c1c(O)[nH]c2ccccc12")
"37.1 µM"
>>> result("Cc1cc(=O)[nH]c(NN2C(Cl)C(=O)C2c2cccc(O)c2)n1 (stereo unspecified)")
"> 100 µM"
>>> result("CC(=O)OC1Oc2ccccc2-c2oc(=O)c(-c3cc(=O)oc4cc(O)ccc34)cc21 (stereo unspecified)")
"79.2 µM"
>>> result("Cc1ccc(Cl)cc1Nc1nc(C(F)(F)F)ccc1C(=O)N1CCN(c2ccc(F)cc2)CC1")
"47.7 µM"
>>> result("Cc1cc(C)c(S(=O)(=O)N2CCCN(S(=O)(=O)c3c(C)cc(C)cc3C)OCCCON(S(=O)(=O)c3c(C)cc(C)cc3C)CCCN(S(=O)(=O)c3c(C)cc(C)cc3C)OCCCO2)c(C)c1")
"> 100 µM"
>>> result("NC(N)=NCCN=C(N)N")
"> 100 µM"
>>> result("CNCCNc1c2c(c(NCCNC)c3c(CN(C)C)c[nH]c13)C(=O)c1ccccc1C2=O")
"14.4 µM"
>>> result("Clc1ccc2c(NCCCNc3nccc(Nc4ccc(Br)cc4)n3)ccnc2c1")
"3.2 µM"
>>> result("O=c1[nH]c(-c2ccc3ccccc3c2)nc2ccccc12")
"80.2 µM"
>>> result("O=c1c2ccccc2[se]n1-c1cccnc1")
"88.1 µM"

====

# Test system: EKVX NSCLC
# method_notes: NCI tumour cell line growth inhibition, 48 h
outcome_measure: TGI

>>> result("CCC(=O)NC(Nc1cccc(F)c1C)(C(F)(F)F)C(F)(F)F")
"> 100 µM"
>>> result("COc1ccccc1C1C(C(=O)O)=C(CO)Oc2cc3c(cc21)OCO3 (stereo not drawn)")
"> 100 µM"
>>> result("NNC(N)Nc1ccccc1 (stereo not drawn)")
"> 100 µM"
>>> result("COc1ccc2c(c1)CCC1C2CC[C@@]2(C)C1CC1=CC(COC(C)=O)C3C(=O)c4ccccc4C(=O)C3C12 (stereo partly drawn)")
"> 100 µM"
>>> result("C/C1=C\\CC[C@@]2(C)O[C@@H]2[C@H]2OC(=O)[C@@H](CN(C)C)[C@@H]2CC1")
"41.8 µM"
>>> result("C[C@H]1c2cccc(O)c2C(O)=C2C(=O)[C@]3(O)C(O)=C(C(N)=O)C(=O)[C@@H](N(C)C)[C@@H]3[C@@H](O)[C@@H]21")
"15.5 µM"
>>> result("CC(=O)c1c2c(cc3c1CC1(Cc4ccccc4C1=O)C3)CCC2 (stereo not drawn)")
"63.9 µM"
>>> result("S=C(c1c[nH]c2ccccc12)N1CCOCC1")
"> 100 µM"
>>> result("NC(=NCCCOc1ccc(Cl)cc1)Nc1ccc(C(F)(F)F)cc1")
"8.65 µM"
>>> result("Cc1ccc(Cl)cc1Nc1nc(C(F)(F)F)ccc1C(=O)N1CCN(c2ccc(F)cc2)CC1")
"45.4 µM"
>>> result("Ic1ccc(Nc2nc3nonc3nc2Nc2ccc(I)cc2)cc1")
"> 100 µM"
>>> result("Cc1cc(N(CCC#N)CCC#N)ccc1/C(N=Nc1ccc([N+](=O)[O-])cc1)=N\\NC(=O)c1cc(Cl)ccc1C(=O)c1ccccc1")
"28.3 µM"
>>> result("O=C(O)CNc1cc(-c2ccccc2)nc(NCC(=O)O)n1")
"> 100 µM"
>>> result("COc1ccc(C(=O)c2cc(OC)c(C)c(OC)c2)cc1OC(=O)CCl")
"> 100 µM"
>>> result("CCCCN(CCCC)CC(C(=O)Nc1ccc([N+](=O)[O-])cc1[N+](=O)[O-])/C(C)=N\\NC(=S)NN (stereo not drawn)")
"> 100 µM"
>>> result("COc1ccc(C(=O)Sc2c(-c3ccccc3)c(=O)n(-c3ccccc3)c(=S)n2-c2ccccc2)cc1")
"> 100 µM"
>>> result("O=S(=O)([O-])c1ccc2c(c1)-c1nc-2nc2[n-]c(nc3nc(nc4[n-]c(n1)c1ccc(S(=O)(=O)[O-])cc41)-c1cc(S(=O)(=O)[O-])ccc1-3)c1ccc(S(=O)(=O)[O-])cc21.[Cu+2].[Na+]")
"> 100 µM"
>>> result("COc1cc(-c2cc(=O)c3c(OC)c(OC)c(OC)c(OC)c3o2)c(OC)c(OC)c1OC")
"> 100 µM"
>>> result("COC(=O)C(C)(NC(=O)C(CC(=O)OC(C)(C)C)NC(=O)OC(C)(C)C)c1ccccc1 (stereo not drawn)")
"> 100 µM"
>>> result("CC(=O)Oc1cccc2c(/C=N/NC(N)=S)ncc(C)c12")
"39.7 µM"
>>> result("NC(CCCCP(=O)(O)O)C(=O)O (stereo not drawn)")
"> 100 µM"
>>> result("C=CC1CC12C(=O)C1OC2(C)C2C(=O)c3cc4ccccc4cc3C(=O)C12 (stereo not drawn)")
"> 100 µM"
>>> result("CC(=O)OCCn1cnc2nc(Nc3ccccc3)nc(Cl)c21")
"> 100 µM"
>>> result("O=C(/C=C/c1ccc(O)cc1)OC[C@@H](O)COC1OC(CO)C(O)C(O)C1O (stereo partly drawn)")
"> 100 µM"
>>> result("CCc1nc(N)nc(N)c1-c1ccc2nn(-c3ccccc3)[n+]([O-])c2c1")
"35.1 µM"
>>> result("C[C@]12CC[C@H](O)CC1=CC[C@@H]1[C@@H]2CC[C@]2(C)C(=O)[C@@H](N3CCOCC3)C[C@@H]12")
"> 100 µM"
>>> result("CCOC(=O)C1=C(C)N(C)C23OC4(C(=O)OC)CC2c2ccccc2C1N3C4=O (stereo not drawn)")
"> 100 µM"
>>> result("CCOC(=O)C1=CC(C)(C(=O)OCC)Nc2c(nc(OC)n(C)c2=O)N1 (stereo not drawn)")
"> 10 µM"
>>> result("Cc1cc2nc3c(C#N)c(-c4ccccc4)cc(Nc4ccc(Cl)cc4)n3c2cc1C")
"> 100 µM"
>>> result("CCCCCCCCCC/C=C/CC(=O)SCCNC(=O)CCNC(=O)[C@@H](O)C(C)(C)COP(=O)(O)OP(=O)(O)OCC1OC(n2cnc3c(N)ncnc32)C(O)C1OP(=O)(O)O (stereo partly drawn)")
"> 10 µM"
>>> result("COC(=O)/C=C/c1cc(O)c2oc(-c3ccc(O)c(O)c3)c(C(=O)OC)c2c1")
"16.6 µM"
>>> result("CC1CC(N)=Nc2ccccc2N1 (stereo not drawn)")
"> 100 µM"
>>> result("O=[n+]1c2c(n([O-])c3ccccc31)CCCCCCCCCC2")
"> 100 µM"
>>> result("CC(=O)OC1Oc2ccccc2-c2oc(=O)c(-c3cc(=O)oc4cc(O)ccc34)cc21 (stereo not drawn)")
"49.3 µM"
>>> result("COC(=O)C(C(=O)C(=O)Nc1cccc(OC)c1)c1cnc2ccccc2n1 (stereo not drawn)")
"> 100 µM"
>>> result("CC(C)(C)C(=O)OCOP(=O)(OCOC(=O)C(C)(C)C)C1CCCN(O)C1=O (stereo not drawn)")
"12.5 µM"
>>> result("CCCCc1c(OC)cc(O)c2c1C(=O)c1[nH]c(C(=O)O)c(O)c(=O)c1C2=O")
"> 100 µM"
>>> result("O=Cc1ccc2c(c1)CC1(C2)Cc2ccc3c(c2C1)CCC3 (stereo not drawn)")
"> 59.2 µM"

Numbers sourced from PubChem BioAssay (NCI).
